Each entry below carries its reported IC50.
- TARGET_OR_SYSTEM: human ADAMTS-5 (Homo sapiens (Human), UniProt Q9UNA0)
- Sequence (Q9UNA0 262-930): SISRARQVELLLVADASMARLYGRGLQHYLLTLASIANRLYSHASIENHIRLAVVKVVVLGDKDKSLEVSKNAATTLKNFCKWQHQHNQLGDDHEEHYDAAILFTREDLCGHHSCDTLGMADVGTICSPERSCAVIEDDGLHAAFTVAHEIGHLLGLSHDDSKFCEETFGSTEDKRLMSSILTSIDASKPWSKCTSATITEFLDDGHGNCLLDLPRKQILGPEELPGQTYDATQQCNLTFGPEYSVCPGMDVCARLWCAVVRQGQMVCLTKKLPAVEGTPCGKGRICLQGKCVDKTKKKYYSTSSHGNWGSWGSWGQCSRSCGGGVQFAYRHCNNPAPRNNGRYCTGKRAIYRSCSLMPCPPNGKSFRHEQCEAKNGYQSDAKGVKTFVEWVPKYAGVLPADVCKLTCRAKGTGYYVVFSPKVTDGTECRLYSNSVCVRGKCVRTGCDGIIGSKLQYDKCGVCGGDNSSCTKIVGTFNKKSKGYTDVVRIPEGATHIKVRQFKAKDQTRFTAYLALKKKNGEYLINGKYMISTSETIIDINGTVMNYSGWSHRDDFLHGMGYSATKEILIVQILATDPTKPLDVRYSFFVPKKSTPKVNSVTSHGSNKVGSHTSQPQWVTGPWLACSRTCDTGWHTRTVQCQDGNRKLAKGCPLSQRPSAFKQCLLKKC
- MEASUREMENT_PARAMETERS: read-out: hADAMTS-5 potency IC50
Just the number please, in µM, no unit attached.

> print(dat)
                                   compound                          target.or.system  endpoint.label  numeric.readout
1  CC1CN(C(=O)CCC2(c3cccnc3)NC(=O)NC2=O)CCN1c1ccccc1 (centres unmarked) [compound 105]  human ADAMTS-5 (Homo sapiens (Human), UniProt Q9UNA0)            IC50            0.226
2  Cc1ccc(Cl)cc1N1CCN(C(=O)CCC2(C(C)(C)C)NC(=O)NC2=O)CC1 (centres unmarked) [compound 108]  human ADAMTS-5 (Homo sapiens (Human), UniProt Q9UNA0)            IC50             0.32
3  COc1ccc(C2(CCC(=O)N3CCN(c4cc(Cl)ccc4C)CC3)NC(=O)NC2=O)cc1 (centres unmarked) [compound 79]  human ADAMTS-5 (Homo sapiens (Human), UniProt Q9UNA0)            IC50            0.053
4  O=C1NC(=O)C(CCC(=O)N2CCN(c3cccc(Cl)c3)CC2)(c2cccnc2)N1 (centres unmarked) [compound 56]  human ADAMTS-5 (Homo sapiens (Human), UniProt Q9UNA0)            IC50            0.038
5  Cc1cc(Cl)ccc1N1CCN(C(=O)CCC2(C)NC(=O)NC2=O)CC1 (centres unmarked) [compound 17]  human ADAMTS-5 (Homo sapiens (Human), UniProt Q9UNA0)            IC50             2.84

Record CN(C)CCOc1ccc(C2(CCC(=O)N3CCN(c4cccc(Cl)c4)CC3)NC(=O)NC2=O)cc1 (centres unmarked) [compound 80] ; system human ADAMTS-5 (Homo sapiens (Human), UniProt Q9UNA0); IC50 = 0.257

Record O=C1NC(=O)C(CCC(=O)N2CCN(c3ccccc3)CC2)(c2ccccc2)N1 (centres unmarked) [compound 4] ; system human ADAMTS-5 (Homo sapiens (Human), UniProt Q9UNA0); IC50 = 0.114

Record Cc1ccc(Cl)cc1N1CCN(C(=O)CCC2(c3ccccc3)NC(=O)NC2=O)CC1 (centres unmarked) [compound 24] ; system human ADAMTS-5 (Homo sapiens (Human), UniProt Q9UNA0); IC50 = 0.093

====

Each entry below carries its reported pIC50.
- TARGET_OR_SYSTEM: human MMP14 (Homo sapiens (Human), UniProt P50281)
pIC50: −log10 of the molar value.

> print(dat)
                                   molecule                          target.or.system  result
1  COCC1(CC(C)C(=O)N2CCN(c3cc(F)ccc3C)[C@@H](C)C2)NC(=O)NC1=O (some centres unmarked) [compound 228]  human MMP14 (Homo sapiens (Human), UniProt P50281)  < 4.70
2  Cc1cccc(C2(CCC(=O)N3CCN(c4cc(F)cc(Cl)c4)[C@@H](C)C3)NC(=O)NC2=O)n1 (some centres unmarked) [compound 307]  human MMP14 (Homo sapiens (Human), UniProt P50281)  < 4.70

Record Cc1cncc(N2CCN(C(=O)C(C)CC3(C4CC4)NC(=O)NC3=O)C[C@@H]2C)c1 (some centres unmarked) [compound 342] ; system human MMP14 (Homo sapiens (Human), UniProt P50281); pIC50 = 5.59

Record COC(CC1(C)NC(=O)NC1=O)C(=O)N1CCN(c2cc(F)cc(Cl)c2)[C@@H](C)C1 (some centres unmarked) [compound 295] ; system human MMP14 (Homo sapiens (Human), UniProt P50281); pIC50 = 5.46

Record C[C@H]1CN(C(=O)CCC2(C3CC3)NC(=O)NC2=O)CCN1c1cncc(Cl)c1 (some centres unmarked) [compound 260] ; system human MMP14 (Homo sapiens (Human), UniProt P50281); pIC50 = < 4.70

The values you see were collected from patent US9926281B2.
